Target chain: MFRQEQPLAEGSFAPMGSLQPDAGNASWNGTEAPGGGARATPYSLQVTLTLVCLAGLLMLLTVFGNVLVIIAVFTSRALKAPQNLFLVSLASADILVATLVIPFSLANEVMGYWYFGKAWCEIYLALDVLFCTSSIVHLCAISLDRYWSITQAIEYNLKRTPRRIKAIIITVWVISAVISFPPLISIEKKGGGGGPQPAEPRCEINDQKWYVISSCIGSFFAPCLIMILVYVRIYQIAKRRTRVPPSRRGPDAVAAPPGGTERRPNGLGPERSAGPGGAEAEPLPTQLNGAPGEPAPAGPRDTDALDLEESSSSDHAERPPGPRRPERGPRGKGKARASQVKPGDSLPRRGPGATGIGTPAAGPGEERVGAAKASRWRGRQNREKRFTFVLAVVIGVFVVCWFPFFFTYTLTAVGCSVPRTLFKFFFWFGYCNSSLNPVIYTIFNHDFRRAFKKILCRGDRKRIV
readout.type: Ki

| cpd.smiles | readout.type | value.measured |
| --- | --- | --- |
| Cl.O=S(=O)(c1cccc2ccccc12)c1n[nH]c2ccc(NC3CCNCC3)cc12 | Ki | > 5 µM |
| Cl.NCCC(=O)Nc1ccc2[nH]nc(S(=O)(=O)c3cccc4ccccc34)c2c1 | Ki | > 5 µM |
| Cl.O=S(=O)(c1cccc(Cl)c1)c1n[nH]c2ccc(NC3CCNCC3)cc12 | Ki | > 5 µM |

* * *

tgt: 5-hydroxytryptamine receptor 6 (Homo sapiens, UniProt P50406)
Sequence (P50406 whole entry): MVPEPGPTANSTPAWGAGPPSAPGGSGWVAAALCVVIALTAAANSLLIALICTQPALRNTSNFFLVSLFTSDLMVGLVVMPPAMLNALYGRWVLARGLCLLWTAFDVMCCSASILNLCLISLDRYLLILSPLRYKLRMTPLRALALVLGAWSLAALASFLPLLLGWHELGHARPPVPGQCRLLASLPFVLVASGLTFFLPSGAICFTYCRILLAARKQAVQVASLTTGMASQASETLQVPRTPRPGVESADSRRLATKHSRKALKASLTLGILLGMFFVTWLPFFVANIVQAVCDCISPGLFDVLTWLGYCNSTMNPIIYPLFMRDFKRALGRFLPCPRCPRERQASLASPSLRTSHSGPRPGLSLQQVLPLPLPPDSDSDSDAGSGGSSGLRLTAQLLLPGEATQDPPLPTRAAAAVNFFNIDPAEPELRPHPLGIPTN
experiment.summary: Antagonist activity at cloned human 5-HT6 receptor expressed in human HeLa cells assessed as inhibition of 5HT-induced cyclic AMP formation

| molecule | IC50 / nM |
| --- | --- |
| NCCNc1ccc2[nH]nc(S(=O)(=O)c3cccc4ccccc34)c2c1 | 13 |
| Cl.O=S(=O)(c1cccc2ccccc12)c1n[nH]c2ccc(NC3CCNCC3)cc12 | 15 |
| O=C(CCN1CCCCC1)Nc1ccc2c(S(=O)(=O)c3cccc4ccccc34)n[nH]c2c1 | 90 |
| O=S(=O)(c1ccc(Cl)cc1)c1n[nH]c2ccc(NC3CCNCC3)cc12 | 44 |
| COc1ccc(S(=O)(=O)c2n[nH]c3ccc(NC4CCNCC4)cc23)cc1 | 126 |
| Cl.O=C(Nc1ccc2[nH]nc(S(=O)(=O)c3cccc4ccccc34)c2c1)C1CCNCC1 | 8.2 |
| NCCNc1cccc2c(S(=O)(=O)c3cccc4ccccc34)n[nH]c12 | 93 |
| Cl.NCCC(=O)Nc1ccc2[nH]nc(S(=O)(=O)c3cccc4ccccc34)c2c1 | 3.8 |
| NCCNCc1ccc2[nH]nc(S(=O)(=O)c3cccc4ccccc34)c2c1 | 156 |
| O=S(=O)(c1cccc2ccccc12)c1n[nH]c2cccc(NC3CCCNC3)c12 (stereo not given) | 88 |

* * *

The following compounds are listed with their measured IC50 values.
tgt: 5-hydroxytryptamine receptor 6 (Homo sapiens)
experiment.summary: Antagonist activity at cloned human 5-HT6 receptor expressed in human HeLa cells assessed as inhibition of 5HT-induced cyclic AMP formation

| compound | IC50 |
| --- | --- |
| O=S(=O)(c1cccc2ccccc12)c1n[nH]c2ccc(NCC3CCNCC3)cc12 | 174 nM |
| CC(C)c1ccc(S(=O)(=O)c2n[nH]c3ccc(NC4CCNCC4)cc23)cc1.Cl | 14 nM |
| O=S(=O)(c1ccccc1)c1n[nH]c2ccc(NC3CCNCC3)cc12 | 125 nM |
| O=S(=O)(c1cccc2ccccc12)c1n[nH]c2ccc(CN3CCNCC3)cc12 | 19 nM |
| O=S(=O)(c1ccc(C(F)(F)F)cc1)c1n[nH]c2ccc(NC3CCNCC3)cc12 | 27 nM |
| O=S(=O)(c1cccc(F)c1)c1n[nH]c2ccc(NC3CCNCC3)cc12 | 94 nM |
| O=S(=O)(c1ccc(F)cc1)c1n[nH]c2ccc(NC3CCNCC3)cc12 | 118 nM |
| O=C(Nc1cccc2c(S(=O)(=O)c3cccc4ccccc34)n[nH]c12)C1CCCNC1 (configuration not stated) | 48 nM |
| Cc1cccc(S(=O)(=O)c2n[nH]c3ccc(NC4CCNCC4)cc23)c1 | 19 nM |
| Cl.O=S(=O)(c1ccc2ccccc2c1)c1n[nH]c2ccc(NC3CCNCC3)cc12 | 16 nM |
| NCCC(=O)Nc1ccc2c(S(=O)(=O)c3cccc4ccccc34)n[nH]c2c1 | 456 nM |
| CC(N)CNc1ccc2[nH]nc(S(=O)(=O)c3cccc4ccccc34)c2c1 (configuration not stated) | 30 nM |
